src = PubChem BioAssay (NCI)

Tested on: DMS 273 small cell lung
protocol.summary: NCI tumour cell line growth inhibition, 48 h
Exercise: for every item that follows, state its recorded TGI.

>>> print(df.to_string())
                                   compound  property_measured  reported_result
0  O=C(NC(c1ccccc1)C(O)C(=O)OCc1ccc2c(c1)C(=O)c1ccccc1C2=O)c1ccccc1 (stereo unspecified)                TGI         > 100 µM
1  CCN(CC)CC(C(=O)Nc1c(C)cccc1C)/C(C)=N/NC(N)=S (stereo unspecified)                TGI         > 100 µM
2  O=C1[C@@H]2C3C=CC([C@H]4C(=O)N(CO)C(=O)[C@@H]34)[C@@H]2C(=O)N1CO                TGI        > 57.3 µM
3  O=c1c2ccccc2nc(-c2ccccc2Cl)n1NC1OC(CO)C(O)C(O)C1O (stereo unspecified)                TGI         > 100 µM

Record TGI for all entries; do not skip any.
1. O=C(Cc1nc2ccccc2s1)C(=O)Nc1ccccc1C(F)(F)F
2. CCCCCC1C2C(=O)NC(=O)C1C(=O)NC2=O (stereo unspecified)

Output line:
["> 100 µM", "> 100 µM"]

* * *

Tested on: IGROV1 ovarian
protocol.summary: NCI tumour cell line growth inhibition, 48 h
Would you mind telling me the reported TGI of each entry?

Record excerpt, results attached:
In [3]: df
Out[3]:
                                   compound  property_measured  reported_result
0   CN1CCN(c2nc3c(c(=O)n(C)c(=O)n3C)n2C)CC1                TGI         > 100 µM
1  COc1cc(C2c3cc4c(c(O)c3C(=O)C3CCC(=O)N32)OCO4)cc(OC)c1OC (stereo not drawn)                TGI         > 100 µM

Next, consider the following compound.
Input line: Item COc1ccc(/C=C(\NC(=O)c2ccccc2)c2nc3ccccc3[nH]2)cc1 with IGROV1 ovarian - TGI?
Output line: > 100 µM

* * *

Test system: HCT-15 colon
protocol.summary: NCI tumour cell line growth inhibition, 48 h
Please respond with reported TGI for every item in the list.

Quick batch: TGI for everything below.
1. Cc1c2cccc-2c(N(C)C)cc2c1[nH]c1ccccc12
2. Clc1ccc(CCn2ccc3ccccc32)c(Cl)c1
3. CC(C)(C)OC(=O)NCCNC(=O)OCc1ccccc1
4. Cn1c(N)cc(=O)nc1N
5. O=C(/C=C/CN1CCCCC1)Nc1cc2c(Nc3ccc(F)c(Cl)c3F)ncnc2cc1OCCOC(F)F

Output line:
1: 13.6 µM; 2: > 100 µM; 3: > 100 µM; 4: > 100 µM; 5: 3.86 µM

* * *

Please respond with reported TGI for every item in the list.
Tested on: SN12C renal
protocol.summary: NCI tumour cell line growth inhibition, 48 h

In [3]: df
Out[3]:
                                   compound  reported_result
0  O=C1C2=C(Nc3cc([N+](=O)[O-])ccc3N2)OC1c1c[nH]c2ccc(COc3ccccc3)cc12 (stereo not given)         > 100 µM
1  O=C(CSCC(=O)N/N=C\c1cc(Br)cc(Br)c1O)N/N=C\c1cc(Br)cc(Br)c1O         > 100 µM
2  COc1cc2c(oc(=O)c3c4oc([Si](C)(C)C)cc4cc(OC)c23)c2cccc(O)c12         > 100 µM
3  O=C1CSC(c2ccc(Cl)cc2)N1c1ccc(-n2c(-c3ccccc3)nc3ccccc3c2=O)cc1 (stereo not given)         > 100 µM

Input line: // TGI lookup, key: COc1cc(/C=C/C(=O)C(C)(C)C)cc(OC)c1OC
Output line: > 100 µM

* * *

Tested on: HL-60(TB) leukemia
protocol.summary: NCI tumour cell line growth inhibition, 48 h
For each record, write down the corresponding TGI.

Worked set:
>>> df
                                   compound  property_measured  reported_result
0  N#C/C(=C/NC(=S)Nc1ccc(S(N)(=O)=O)cc1)C(N)=O                TGI         > 100 µM
1                         Cc1cccc2ns[s+]c12                TGI         > 100 µM
2   O=C(C(=O)n1ccc2ccccc21)c1c[nH]c2ccccc12                TGI          > 10 µM
3      CN(C)/C=C/c1ccnc2c1C(=O)c1ccccc1C2=O                TGI        > 55.5 µM
4  CC(=O)NC1C(=O)CC(c2ccccc2)N(C)C1c1ccccc1 (stereo not given)                TGI         > 100 µM
5  COc1cc(NS(C)(=O)=O)ccc1N1Cc2cnc3ccc4[nH]ccc1c4c23                TGI         > 100 µM
6  O=C(CN1C(=O)c2ccccc2C1=O)NC1(C(=O)O)CCCC1                TGI         > 100 µM
7                         Cn1c(N)cc(=O)nc1N                TGI         > 100 µM

Please give TGI for each item listed below.
1. CC(C)OP(=O)(OC(C)C)c1ncn(-c2ccc([N+](=O)[O-])cc2)n1
2. COc1cccc(C(=O)C(O)c2cccc(OC)c2OC)c1OC (stereo not given)

Output line:
1. > 100 µM
2. > 100 µM

* * *

Tested on: OVCAR-8 ovarian
protocol.summary: NCI tumour cell line growth inhibition, 48 h
property.measured: TGI

>>> print(df.to_string())
                                   compound  reported_result
0  COc1ccc(C2CC(c3cccc(Nc4ccnc5cc(Cl)ccc45)c3)=NN2c2ccc(Cl)cc2)cc1 (centres undefined)            91 µM

Field: TGI. Fill in for each record below.
1. CC(C)NC(=O)OCc1c(COC(=O)NC(C)C)c(-c2ccc[n+](COC(=O)C3CCCCC3)c2)n2c1CCC2
2. O=C(C(=O)n1ccc2ccccc21)c1c[nH]c2ccccc12
3. N#Cc1ccc(/C=C2\Cc3ccccc3C2=O)cc1
4. O=C1c2ccccc2CC1C1(O)C(=O)Nc2c(Cl)cc(Cl)cc21 (centres undefined)
5. O=C1N[C@@H](c2c[nH]c3ccc(Br)cc23)C(=O)N[C@H]1c1c[nH]c2ccc(Br)cc12
6. COc1ccc(N=Nc2ccc3oc(=O)c(C(=O)Nc4ccc(OC)cc4)cc3c2)cc1

Output line:
1. > 100 µM
2. > 10 µM
3. > 100 µM
4. > 100 µM
5. 26 µM
6. 37.8 µM

I have 2 compounds here; please give me TGI for each one.
1. O=C(CN1C(=O)c2ccccc2C1=O)NC1(C(=O)O)CCCC1
2. CN(C)CCCN1c2ccc3ccccc3c2Sc2cccc(Cl)c21

Output line:
["> 100 µM", "18 µM"]

* * *

Would you mind telling me the reported TGI of each entry?
Tested on: HOP-62 NSCLC
protocol.summary: NCI tumour cell line growth inhibition, 48 h

                                item_smiles  reported_result
0                      O=c1n(CCO)nc2n1CCCN2         > 100 µM
1  COc1ccc(-c2nccn2-c2cc(OC)c(OC)c(OC)c2)cc1         > 100 µM

Kindly review the next compound as well.
Input line: What value of measured TGI is listed for COc1ccc(C(=O)CC(Cl)=C(Cl)Cl)cc1 ?
Output line: > 100 µM

* * *

Answer each item with its documented TGI.
Tested on: MALME-3M melanoma
protocol.summary: NCI tumour cell line growth inhibition, 48 h

>>> print(df.to_string())
                                   compound  property_measured  reported_result
0  CCCCCC1C2C(=O)NC(=O)C1C(=O)NC2=O (stereo not drawn)                TGI         > 100 µM
1  CCC(c1ccc(N(C)C)cc1)C1NC(=S)NC1=O (stereo not drawn)                TGI         > 100 µM

Input line: # query: TGI of entry O=C(Nc1cccc(Cl)c1)c1cc2cc(N=Nc3ccc(Br)cc3)ccc2oc1=O
Output line: > 100 µM

* * *

Test system: MDA-MB-231 breast
protocol.summary: NCI tumour cell line growth inhibition, 48 h
property.measured: TGI

As a guide, the following entries are already answered.
In [3]: df
Out[3]:
                            item_smiles  reported_result
0   c1ccc(C2(c3cc4ccccc4[nH]3)OCCO2)cc1         > 100 µM
1  CN(C)/C=C/c1ccnc2c1C(=O)c1ccccc1C2=O          > 89 µM

Let us move to another entry and its TGI.
Input line: I would be grateful if you could share the reported TGI for Clc1ccc(CCn2ccc3ccccc32)c(Cl)c1 .
Output line: > 100 µM
